Test system: 817829-284-R-J1-PDC complex spheroids, viability
Assay: Anticancer human tumor 817829-284-R-J1-PDC patient-derived colon adenocarcinoma cell line growth inhibition [CLK]
Conditions: second compound 3.16 µM; first compound 0.316 µM; stronger effect = lower value
Measured viability, T/C by item
Express it in %; write the number only.

Take a look at these entries with their results.
C#Cc1c(F)ccc2cc(O)cc(-c3ncc4c(N5CC6CCC(C5)N6)nc(OCC56CCCN5CC(F)C6)nc4c3F)c12 (configuration not stated) + CN1CCN(c2cc(C(=O)Nc3cc4cc(-c5cnn(C)c5)ccc4cn3)ccn2)CC1 :: 0.15
CCc1c2c(nc3ccc(O)cc13)-c1cc3c(c(=O)n1C2)COC(=O)[C@]3(O)CC + CNC(=O)c1ccc(Nc2nc(OC3CCCC3)c3c(-c4ccc5nc(C)oc5c4)c[nH]c3n2)c(OC)c1 :: 4.45
CC(=O)O[C@H]1C(=O)[C@@]2(C)[C@H]([C@H](OC(=O)c3ccccc3)[C@]3(O)C[C@H](OC(=O)[C@H](O)[C@@H](NC(=O)c4ccccc4)c4ccccc4)C(C)=C1C3(C)C)[C@]1(OC(C)=O)CO[C@@H]1C[C@@H]2O + CNC(=O)c1ccc(Nc2nc(OC3CCCC3)c3c(-c4ccc5nc(C)oc5c4)c[nH]c3n2)c(OC)c1 :: 17.7
CC(Nc1ccc2c(c1)OCCn1cc(N3C(=O)OCC3C(F)F)nc1-2)C(N)=O (configuration not stated) + CN1CCN(c2cc(C(=O)Nc3cc4cc(-c5cnn(C)c5)ccc4cn3)ccn2)CC1 :: 0.15
COc1ccc([C@@H](O)c2cc(-c3ncnc4cc(N5CCOCC5)ccc34)c(F)cc2Cl)nn1 + CN1CCN(c2cc(C(=O)Nc3cc4cc(-c5cnn(C)c5)ccc4cn3)ccn2)CC1 :: 0.19
C#Cc1c(F)ccc2cc(O)cc(-c3ncc4c(N5CC6CCC(C5)N6)nc(OCC56CCCN5CC(F)C6)nc4c3F)c12 (configuration not stated) + CNC(=O)c1ccc(Nc2nc(OC3CCCC3)c3c(-c4ccc5nc(C)oc5c4)c[nH]c3n2)c(OC)c1 :: 23

In the following, a different molecule is considered.
# input Please list viability, T/C recorded for the molecule CC(Nc1ccc2c(c1)OCCn1cc(N3C(=O)OCC3C(F)F)nc1-2)C(N)=O (configuration not stated) + CNC(=O)c1ccc(Nc2nc(OC3CCCC3)c3c(-c4ccc5nc(C)oc5c4)c[nH]c3n2)c(OC)c1
# output 16.5

###

Test system: 817829-284-R-J1-PDC complex spheroids, viability
Test: Anticancer human tumor 817829-284-R-J1-PDC cell line growth inhibition [CLK];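 also: spheroids exposed to the agents for seven days before readout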
Conditions: second compound 0.0316 µM; first compound 0.1 µM; stronger effect = lower value
Measured viability, T/C by item
Express it in %; write the number only.

CC1COCCN1c1cc(C2(S(C)(=N)=O)CC2)nc(-c2ccnc3[nH]ccc23)n1 (centres undefined) + CN1CCN(c2cc(C(=O)Nc3cc4cc(-c5cnn(C)c5)ccc4cn3)ccn2)CC1 :: 48.3
CC(CO)NC(=O)c1cc(-c2ccc(Cl)cc2)nn(-c2cnn(C)c2)c1=O (centres undefined) + CNC(=O)c1ccc(Nc2nc(OC3CCCC3)c3c(-c4ccc5nc(C)oc5c4)c[nH]c3n2)c(OC)c1 :: 34.8

# input Please list viability, T/C recorded for the compound O=C(c1cc(Cc2n[nH]c(=O)c3ccccc23)ccc1F)N1CCN(C(=O)C2CC2)CC1 + CNC(=O)c1ccc(Nc2nc(OC3CCCC3)c3c(-c4ccc5nc(C)oc5c4)c[nH]c3n2)c(OC)c1
# output 42.9

# input Please list viability, T/C recorded for the compound C=C(F)C(=O)N1CCN(c2nc(OCC3CCCN3C)nc3c2CCN(c2cccc4cccc(Cl)c24)C3)CC1CC#N (centres undefined) + CNC(=O)c1ccc(Nc2nc(OC3CCCC3)c3c(-c4ccc5nc(C)oc5c4)c[nH]c3n2)c(OC)c1
# output 42.3

# input Please list viability, T/C recorded for the compound CC(CO)NC(=O)c1cc(-c2ccc(Cl)cc2)nn(-c2cnn(C)c2)c1=O (centres undefined) + CN1CCN(c2cc(C(=O)Nc3cc4cc(-c5cnn(C)c5)ccc4cn3)ccn2)CC1
# output 71.7

###

Test system: 817829-284-R-J1-PDC complex spheroids, viability
Experiment: Anticancer human tumor 817829-284-R-J1-PDC cell line growth inhibition [CLK]; active = viability on the fitted dose curve at most 10% of control; inactive = the rest;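 also: spheroids exposed to the agents for seven days before readout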
Conditions: second compound 0.0316 µM; first compound 0.316 µM
Form entry, call: pick from active, inactive

For orientation, consider the following solved cases.
COc1cccc2c1C(=O)c1c(O)c3c(c(O)c1C2=O)CC(O)(C(=O)CO)CC3OC1CC(N)C(O)C(C)O1 (stereo not given) + CN1CCN(c2cc(C(=O)Nc3cc4cc(-c5cnn(C)c5)ccc4cn3)ccn2)CC1 :: active
CC(Nc1ccc2c(c1)OCCn1cc(N3C(=O)OCC3C(F)F)nc1-2)C(N)=O (stereo not given) + CNC(=O)c1ccc(Nc2nc(OC3CCCC3)c3c(-c4ccc5nc(C)oc5c4)c[nH]c3n2)c(OC)c1 :: inactive
C#Cc1c(F)ccc2cc(O)cc(-c3ncc4c(N5CC6CCC(C5)N6)nc(OCC56CCCN5CC(F)C6)nc4c3F)c12 (stereo not given) + CNC(=O)c1ccc(Nc2nc(OC3CCCC3)c3c(-c4ccc5nc(C)oc5c4)c[nH]c3n2)c(OC)c1 :: inactive
COc1ccc([C@@H](O)c2cc(-c3ncnc4cc(N5CCOCC5)ccc34)c(F)cc2Cl)nn1 + CN1CCN(c2cc(C(=O)Nc3cc4cc(-c5cnn(C)c5)ccc4cn3)ccn2)CC1 :: inactive

Let's switch to this molecule now.
# input Tell me the recorded outcome of this test for Nc1ccn(C2OC(CO)C(O)C2(F)F)c(=O)n1 (stereo not given) + CNC(=O)c1ccc(Nc2nc(OC3CCCC3)c3c(-c4ccc5nc(C)oc5c4)c[nH]c3n2)c(OC)c1 .
# output active

###

Tested on: 817829-284-R-J1-PDC complex spheroids, viability
Experiment: Anticancer human tumor 817829-284-R-J1-PDC cell line growth inhibition [CLK]; active means viability on the fitted dose curve at most 10% of control; inactive means the rest;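 also: spheroids exposed to the agents for seven days before readout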
Settings: second compound 0.0316 µM; first compound 0.316 µM
Form entry, call: pick from active, inactive

For orientation, consider the following solved cases.
COC1C=CCC(C)C(C)S(=O)(=O)NC(=O)c2ccc3c(c2)N(CC2CCC21)CC1(CCCc2cc(Cl)ccc21)CO3 (stereo not drawn) + CN1CCN(c2cc(C(=O)Nc3cc4cc(-c5cnn(C)c5)ccc4cn3)ccn2)CC1 :: inactive
CCc1c2c(nc3ccc(O)cc13)-c1cc3c(c(=O)n1C2)COC(=O)[C@]3(O)CC + CNC(=O)c1ccc(Nc2nc(OC3CCCC3)c3c(-c4ccc5nc(C)oc5c4)c[nH]c3n2)c(OC)c1 :: active

Let's switch to this molecule now.
# input Tell me the recorded outcome of this test for CC(CO)NC(=O)c1cc(-c2ccc(Cl)cc2)nn(-c2cnn(C)c2)c1=O (stereo not drawn) + CNC(=O)c1ccc(Nc2nc(OC3CCCC3)c3c(-c4ccc5nc(C)oc5c4)c[nH]c3n2)c(OC)c1 .
# output inactive

###

Tested on: 817829-284-R-J1-PDC complex spheroids, viability
Experiment: Anticancer human tumor 817829-284-R-J1-PDC cell line growth inhibition [CLK];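 also: spheroids exposed to the agents for seven days before readout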
Conditions: second compound 0.316 µM; first compound 1 µM; stronger effect = lower value
Measured viability, T/C by item
Express it in %; write the number only.

CCCS(=O)(=O)Nc1ccc(F)c(C(=O)c2c[nH]c3ncc(-c4ccc(Cl)cc4)cc23)c1F + CNC(=O)c1ccc(Nc2nc(OC3CCCC3)c3c(-c4ccc5nc(C)oc5c4)c[nH]c3n2)c(OC)c1 :: 15.2
CCc1c2c(nc3ccc(O)cc13)-c1cc3c(c(=O)n1C2)COC(=O)[C@]3(O)CC + CNC(=O)c1ccc(Nc2nc(OC3CCCC3)c3c(-c4ccc5nc(C)oc5c4)c[nH]c3n2)c(OC)c1 :: 3.35

In the following, a different compound is considered.
# input Report value: viability, T/C, system: 817829-284-R-J1-PDC complex spheroids, viability, compound: COc1cccc2c1C(=O)c1c(O)c3c(c(O)c1C2=O)CC(O)(C(=O)CO)CC3OC1CC(N)C(O)C(C)O1 (stereo not drawn) + CN1CCN(c2cc(C(=O)Nc3cc4cc(-c5cnn(C)c5)ccc4cn3)ccn2)CC1
# output 0.33

###

Tested on: 817829-284-R-J1-PDC complex spheroids, viability
Assay: Anticancer human tumor 817829-284-R-J1-PDC cell line growth inhibition [CLK];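 also: spheroids exposed to the agents for seven days before readout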
Details: second compound 0.0316 µM; first compound 3.16 µM; stronger effect = lower value
Description: A high-throughput screen of multi-cell type tumor spheroids was designed to identify active combinations of […] and targeted small molecules. Complex spheroids include a stromal component modeled by human endothelial cells (HUVEC) and fibroblasts modeled by human mesenchymal stem cells (MSCs). […] Compounds. […] If the clinical Cmax for an agent had not been determined, the highest concentration tested was 10 microM. […]
Lab note: anything with viability, T/C below 30% is marked 1 (yes); values at 30% or higher are marked 0 (no).

CC(=O)O[C@H]1C(=O)[C@@]2(C)[C@H]([C@H](OC(=O)c3ccccc3)[C@]3(O)C[C@H](OC(=O)[C@H](O)[C@@H](NC(=O)c4ccccc4)c4ccccc4)C(C)=C1C3(C)C)[C@]1(OC(C)=O)CO[C@@H]1C[C@@H]2O + CNC(=O)c1ccc(Nc2nc(OC3CCCC3)c3c(-c4ccc5nc(C)oc5c4)c[nH]c3n2)c(OC)c1 :: 1 (yes)

# input Dear colleague, could you confirm whether viability, T/C of O=C(c1cc(Cc2n[nH]c(=O)c3ccccc23)ccc1F)N1CCN(C(=O)C2CC2)CC1 + CNC(=O)c1ccc(Nc2nc(OC3CCCC3)c3c(-c4ccc5nc(C)oc5c4)c[nH]c3n2)c(OC)c1 falls below 30%? Thanks.
# output 0 (no)

# input Dear colleague, could you confirm whether viability, T/C of C=CC(=O)N1CCN(c2nc(=O)n(-c3c(C)ccnc3C(C)C)c3nc(-c4c(O)cccc4F)c(F)cc23)C(C)C1 (stereo unspecified) + CNC(=O)c1ccc(Nc2nc(OC3CCCC3)c3c(-c4ccc5nc(C)oc5c4)c[nH]c3n2)c(OC)c1 falls below 30%? Thanks.
# output 1 (yes)

# input Dear colleague, could you confirm whether viability, T/C of CCCS(=O)(=O)Nc1ccc(F)c(C(=O)c2c[nH]c3ncc(-c4ccc(Cl)cc4)cc23)c1F + CNC(=O)c1ccc(Nc2nc(OC3CCCC3)c3c(-c4ccc5nc(C)oc5c4)c[nH]c3n2)c(OC)c1 falls below 30%? Thanks.
# output 0 (no)

# input Dear colleague, could you confirm whether viability, T/C of C=CC(=O)N1CCN(c2nc(=O)n(-c3c(C)ccnc3C(C)C)c3nc(-c4c(O)cccc4F)c(F)cc23)C(C)C1 (stereo unspecified) + CN1CCN(c2cc(C(=O)Nc3cc4cc(-c5cnn(C)c5)ccc4cn3)ccn2)CC1 falls below 30%? Thanks.
# output 0 (no)
